Target: Muscarinic receptor 2
Assay: Binding to muscarinic receptor 2 ([3H]quinuclidinyl benzylate)
Conditions: 0.3 nM [3H]quinuclidinyl benzylate, rat brain, pH 7.5, 60 min, 25° C.; read-out: Affinity for M2 muscarinic receptor, IC50
assay_endpoint: IC50 (nM)

Consider the worked cases shown below.
1) O=S(=O)(c1ccc(N2CCCCC2)cc1)N1CCCCC1=S [Example 4] ... 580
2) CCN(CC)c1ccc(S(=O)(=O)N2CCCC2=S)cc1 [Example 1] ... 2200

A = O=S(=O)(c1ccc(N2CCCCCC2)cc1)N1CCCC1=S [Example 5]
B = CCN(CC)c1ccc(S(=O)(=O)N2CCCCC2=S)cc1 [Example 2]
C = O=S(=O)(c1ccc(N2CCCCC2)cc1)N1CCCC1=S [Example 3]
D = O=S(=O)(c1ccc(N2CCCCCC2)cc1)N1CCCCC1=S [Example 6]
query: Task for the reader: rank each entry by its IC50, from the minimum upward. Would you mind listing the labels in the order asked for?
result: A, D, C, B

Each recorded value in this set is attributed to patent US5037822A.
